Listed molecules paired with reported IC50
target: c-kit mutant D816V (Homo sapiens, UniProt P10721, D816V/DEL694-753); construct: residues 551-934, kinase insertion domain residues 694-753 deleted; 6x-histidine (N); made in house; host or cells: E. coli Arctic Express (DE3) RIL (Stratagene); assay: c-Kit mutant D816V biochemical assay, AlphaScreen; settings: c-kit D816V biochemical inhibitory activity; read-out: Biochemical activity (IC50 μM) Kit D816V
Sequence (P10721 with tags, fused parts or gaps DEL694-753/D816V): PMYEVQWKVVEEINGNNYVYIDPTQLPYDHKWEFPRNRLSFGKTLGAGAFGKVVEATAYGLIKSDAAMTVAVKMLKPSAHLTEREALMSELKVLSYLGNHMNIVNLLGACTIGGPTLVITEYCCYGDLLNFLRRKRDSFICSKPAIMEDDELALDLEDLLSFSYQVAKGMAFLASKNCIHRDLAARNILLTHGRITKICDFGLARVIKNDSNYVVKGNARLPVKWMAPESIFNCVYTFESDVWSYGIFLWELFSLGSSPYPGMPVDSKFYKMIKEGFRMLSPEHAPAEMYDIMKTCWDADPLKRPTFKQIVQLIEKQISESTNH
endpoint-name: IC50

molecule	endpoint-name	data-value
COc1cccc([C@H](C)NC(=O)N2CCN(c3ncnc4[nH]c(C)cc34)CC2)c1 [P-0003]	IC50	0.0001 to 1 µM
CCc1ccc(S(=O)(=O)NC2CCN(c3ncnc4[nH]c(C)cc34)CC2)s1 [P-0730]	IC50	0.0001 to 1 µM
O=C(Nc1ccc(OC(F)(F)F)cc1)N1CCN(c2ncnc3[nH]c(-c4ccc(Cl)cc4)cc23)CC1 [P-0134]	IC50	1 to 10 µM
Cn1cc(-c2cc3ncnc(C4=CC(C)(C)NC(C)(C)C4)c3s2)cn1 [P-0617]	IC50	10 to 200 µM
Cn1cc(-c2cc3c(N4CCC(NS(=O)(=O)c5ccc(C6(C#N)CC6)cc5)CC4)ncnc3[nH]2)cn1 [P-0486]	IC50	1 to 10 µM
O=C(C1CC1)N1CC=C(c2cc3ncnc(-c4ccc(NS(=O)(=O)c5ccc(F)cc5)cc4)c3s2)CC1 [P-0570]	IC50	0.0001 to 1 µM
C[C@H](NC(=O)N1CCN(c2ncnc3cc(N4CCOCC4)sc23)CC1)c1ccc(F)cc1 [P-0589]	IC50	0.0001 to 1 µM
O=C(Nc1cccnc1)NC1CCN(c2ncnc3[nH]ccc23)CC1 [P-0508]	IC50	10 to 200 µM
Cc1cc2c(-c3ccc(NS(=O)(=O)c4ccc(Cl)cc4F)cc3F)ncnc2[nH]1 [P-0352]	IC50	1 to 10 µM
Cc1nn(C)cc1-c1cc2ncnc(N3CCN(C(=O)NCc4ccc(F)cc4)[C@H](C)C3)c2s1 [P-0610]	IC50	0.0001 to 1 µM
C[C@H](NC(=O)N1CCN(c2ncnc3cc(C4=CCN(S(C)(=O)=O)CC4)sc23)CC1(C)C)c1cccc(Cl)c1 [P-0553]	IC50	0.0001 to 1 µM
O=S(=O)(Nc1ccc(F)cc1)c1ccc(-c2ncnc3[nH]c(-c4ccc(F)cc4)cc23)cc1 [P-0428]	IC50	0.0001 to 1 µM
Cn1cc(-c2cc3c(N4CCC(NS(=O)(=O)c5cc(Cl)cs5)CC4)ncnc3[nH]2)cn1 [P-0462]	IC50	0.0001 to 1 µM
C[C@H](NC(=O)N1CCN(c2ncnc3cc(-c4ccc(F)cc4)sc23)CC1(C)C)c1ccc(F)cc1 [P-0593]	IC50	0.0001 to 1 µM
